These data points were gathered from patent US10150760B2.

target: human APJ receptor (Homo sapiens (Human), UniProt P35414); assay: [35S]GTPγS binding assay on membranes from CHO cells stably expressing human APJ receptor; conditions: read-out: Activity hAPJ SPA EC50 IP
Sequence (P35414 whole entry): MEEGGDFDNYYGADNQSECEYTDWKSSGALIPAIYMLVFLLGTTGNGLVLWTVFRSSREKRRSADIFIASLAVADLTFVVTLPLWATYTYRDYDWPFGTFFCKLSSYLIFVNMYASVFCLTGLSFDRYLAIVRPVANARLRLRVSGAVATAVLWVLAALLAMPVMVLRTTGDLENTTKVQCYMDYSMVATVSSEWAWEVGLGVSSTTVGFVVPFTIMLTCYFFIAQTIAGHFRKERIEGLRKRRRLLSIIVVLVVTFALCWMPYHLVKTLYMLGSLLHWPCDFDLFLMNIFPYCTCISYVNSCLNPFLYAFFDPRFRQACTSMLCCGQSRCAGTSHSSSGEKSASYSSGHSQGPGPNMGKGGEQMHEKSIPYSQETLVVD
pEC50: −log10 of the molar value.
Would you please tag the item criterion met when its pEC50 is 7 or above, and criterion not met when it is below?

Here's what some known entries look like.
COc1cccc(OC)c1-n1c(NS(=O)(=O)[C@@H](C)[C@H](C)c2ncc(C)cn2)nnc1[C@H]1CCCOC1 (single isomer, unassigned) [Example 59.0]    criterion met
COc1cccc(OC)c1-n1c(NS(=O)(=O)[C@@H](C)[C@H](C)c2ncc(C)cn2)nnc1[C@@H]1CCO[C@@H]1C (single isomer, unassigned) [Example 123.0]    criterion not met
CO[C@H](c1ncc(Cl)cn1)[C@H](C)S(=O)(=O)Nc1nnc([C@@H]2CCCO2)n1-c1ccccc1Cl    criterion met
COCC1(n2c(NS(=O)(=O)[C@@H](C)[C@H](OC)c3ncc(Cl)cn3)nnc2[C@H]2CC[C@@H](C)O2)CC1 (single isomer, unassigned) [Example 286.0]    criterion met

Hello, I need to know if CO[C@H](c1ncc(Cl)cn1)[C@H](C)S(=O)(=O)Nc1nnc([C@H]2CCOC2)n1C(C)C (single isomer, unassigned) [Example 298.0] has measured pEC50 not below 7. Thanks! criterion not met

Hello, I need to know if COc1cccc(OC)c1-n1c(NS(=O)(=O)[C@@H](C)[C@@H](OC(C)C)c2ncc(Cl)cn2)nnc1[C@@H]1COCCO1 (single isomer, unassigned) has measured pEC50 not below 7. Thanks! criterion met

Hello, I need to know if C[C@H](c1ncc(Cl)cn1)[C@H](C)S(=O)(=O)Nc1nnc([C@@H]2COCCO2)n1C1CCOCC1 (single isomer, unassigned) [Example 245.0] has measured pEC50 not below 7. Thanks! criterion not met

Hello, I need to know if COCC(COC)n1c(NS(=O)(=O)[C@@H](C)[C@H](OC)c2ncc(Cl)cn2)nnc1[C@@H]1COCCO1 (single isomer, unassigned) [Example 251.0] has measured pEC50 not below 7. Thanks! criterion not met

Hello, I need to know if COCCn1c(NS(=O)(=O)[C@@H](C)[C@H](OC)c2ncc(Cl)cn2)nnc1[C@H]1CCOC1 (single isomer, unassigned) [Example 309.0] has measured pEC50 not below 7. Thanks! criterion not met

Hello, I need to know if COc1cccc(OC)c1-n1c(NS(=O)(=O)[C@@H](C)[C@H](C)c2ncc(F)cn2)nnc1[C@@H]1COCCO1 (single isomer, unassigned) [Example 276.0] has measured pEC50 not below 7. Thanks! criterion met

Hello, I need to know if C[C@H](c1ncc(Cl)cn1)[C@H](C)S(=O)(=O)Nc1nnc([C@@H]2CCOC2)n1[C@H](C)c1ccon1 (single isomer, unassigned) [Example 415.0] has measured pEC50 not below 7. Thanks! criterion not met
